Values from PubChem BioAssay (NCI)

# assay: NCI Yeast Anticancer Drug Screen. Data for the mec2-1 strain (AID 157)
# measurement setup: S. cerevisiae mec2-1 strain, at 5.0 µM (retest, dose inferred, filed as 0.5), hits give high values
This is part of a sample that, as a whole, favours compounds with a hit. Of some 79,000 tested, about 15% had one in any assay.
measure name: growth inhibition (%)
Give bare numbers, in %.

Some solved entries appear below for comparison.
| compound | growth inhibition / % |
| --- | --- |
| O=C(O)CNC(c1ccccc1)(c1ccccc1)c1ccccc1 | 35 |
| Cc1cc(OCc2nc(N)nc(N)c2-c2ccc(Cl)c(Cl)c2)ccc1[N+](=O)[O-] | 48 |
| O=C1c2cccc3cccc(c23)C(=O)N1O | 33 |
| CNCC(C)CNC | 10 |
| CN1C(=O)C(CC(=O)O)NC1=S (stereo unspecified) | 2 |
| COC(=O)c1cnc(Cl)c([N+](=O)[O-])c1 | 41 |
| O=C1C[C@H]2[C@H](c3ccc(Br)cc3)[C@H]3C(=O)c4ccccc4NC(=O)[C@@H]3[C@@]2(O)c2ccccc2N1 | 14 |
| N#CCC(=O)N/N=C(\c1ccccc1)C(c1ccccc1)C1(O)C(=O)Nc2c(Cl)ccc(Cl)c21 (stereo unspecified) | -11 |

Hi, could you look up growth inhibition for each item in my list?
1. O=C1c2cccc3cccc(c23)C(=O)N1CCNCCN1C(=O)c2cccc3cccc(c23)C1=O
2. N#CSCC1COc2ccccc2O1 (stereo unspecified)
3. NNc1ccccc1-c1nc2ccccc2[nH]1

[6, -27, -50]
